Study the reported IC50 values for Macrophage colony-stimulating factor 1 receptor (Homo sapiens, UniProt P07333) given below; they originate from different publications.

Consider the following illustrative entries.
CCCS(=O)(=O)Nc1ccc(F)c(C(=O)c2c[nH]c3ncc(-c4cccc(F)c4)cc23)c1F
≤ 10 µM
Nc1ncc(-c2ccc(CNC3CCN[C@@H](C(=O)OC4CCCC4)C3)c(Cl)c2)nc1NCc1c(Cl)cccc1Cl (stereo partly drawn)
0.1 to 0.3 µM

Look up and report IC50, with Macrophage colony-stimulating factor 1 receptor (Homo sapiens, UniProt P07333) as system, for CCOc1c(OCc2cc(C)n(C)n2)cccc1C(=O)c1c[nH]c2ncccc12
≤ 10 µM
